# Lookup of reported relative viability keyed by entry
- Test system: 201T
- assay details: relative viability (nuclei count vs DMSO), 5 days (fraction); higher = more cells survive
- run conditions: first compound 5 µM

Worked examples follow.
O=C(O)CCCCC(CCSCc1ccccc1)SCc1ccccc1 (stereo not given) [CPI-613] + C[C@@H](Oc1cc(-c2cnn(C3CCNCC3)c2)cnc1N)c1c(Cl)ccc(F)c1Cl [Crizotinib] (partner 1 µM) = 1.04
O=C(O)CCCCC(CCSCc1ccccc1)SCc1ccccc1 (stereo not given) [CPI-613] + Cc1cc(Nc2cc(N3CCN(C)CC3)nc(Sc3ccc(NC(=O)C4CC4)cc3)n2)n[nH]1 [Tozasertib] (partner 0.1 µM) = 0.913
O=C(O)CCCCC(CCSCc1ccccc1)SCc1ccccc1 (stereo not given) [CPI-613] + Nc1ncn([C@H]2C[C@H](O)[C@@H](CO)O2)c(=O)n1 [Decitabine] (partner 2 µM) = 0.848
O=C(O)CCCCC(CCSCc1ccccc1)SCc1ccccc1 (stereo not given) [CPI-613] + COc1cccc2cc(-c3nc([C@H]4CC[C@H](C(=O)O)CC4)n4ncnc(N)c34)[nH]c12 [OSI-027] (partner 0.5 µM) = 0.754

QUERY: Read off the recorded relative viability for O=C(O)CCCCC(CCSCc1ccccc1)SCc1ccccc1 (stereo not given) [CPI-613] + CC(=O)c1c(C)c2cnc(Nc3ccc(N4CCNCC4)cn3)nc2n(C2CCCC2)c1=O [Palbociclib] (partner 0.5 µM)
RESULT: 0.341

Attribution: the supplement of paper PMC10307832
